molecular target: N-type calcium channel (α1B (Cav2.2), β3 and α2δ subunits) (Homo sapiens); assay: Functional Assay: Antagonism of N-Type Calcium Channel (FDSS calcium mobilization, KCl depolarization); type: cell-based; settings: HEK cell line, 50 mM KCl depolarization, six-point concentration-response; read-out: FDSS IC50
Sequence (Q00975 whole entry): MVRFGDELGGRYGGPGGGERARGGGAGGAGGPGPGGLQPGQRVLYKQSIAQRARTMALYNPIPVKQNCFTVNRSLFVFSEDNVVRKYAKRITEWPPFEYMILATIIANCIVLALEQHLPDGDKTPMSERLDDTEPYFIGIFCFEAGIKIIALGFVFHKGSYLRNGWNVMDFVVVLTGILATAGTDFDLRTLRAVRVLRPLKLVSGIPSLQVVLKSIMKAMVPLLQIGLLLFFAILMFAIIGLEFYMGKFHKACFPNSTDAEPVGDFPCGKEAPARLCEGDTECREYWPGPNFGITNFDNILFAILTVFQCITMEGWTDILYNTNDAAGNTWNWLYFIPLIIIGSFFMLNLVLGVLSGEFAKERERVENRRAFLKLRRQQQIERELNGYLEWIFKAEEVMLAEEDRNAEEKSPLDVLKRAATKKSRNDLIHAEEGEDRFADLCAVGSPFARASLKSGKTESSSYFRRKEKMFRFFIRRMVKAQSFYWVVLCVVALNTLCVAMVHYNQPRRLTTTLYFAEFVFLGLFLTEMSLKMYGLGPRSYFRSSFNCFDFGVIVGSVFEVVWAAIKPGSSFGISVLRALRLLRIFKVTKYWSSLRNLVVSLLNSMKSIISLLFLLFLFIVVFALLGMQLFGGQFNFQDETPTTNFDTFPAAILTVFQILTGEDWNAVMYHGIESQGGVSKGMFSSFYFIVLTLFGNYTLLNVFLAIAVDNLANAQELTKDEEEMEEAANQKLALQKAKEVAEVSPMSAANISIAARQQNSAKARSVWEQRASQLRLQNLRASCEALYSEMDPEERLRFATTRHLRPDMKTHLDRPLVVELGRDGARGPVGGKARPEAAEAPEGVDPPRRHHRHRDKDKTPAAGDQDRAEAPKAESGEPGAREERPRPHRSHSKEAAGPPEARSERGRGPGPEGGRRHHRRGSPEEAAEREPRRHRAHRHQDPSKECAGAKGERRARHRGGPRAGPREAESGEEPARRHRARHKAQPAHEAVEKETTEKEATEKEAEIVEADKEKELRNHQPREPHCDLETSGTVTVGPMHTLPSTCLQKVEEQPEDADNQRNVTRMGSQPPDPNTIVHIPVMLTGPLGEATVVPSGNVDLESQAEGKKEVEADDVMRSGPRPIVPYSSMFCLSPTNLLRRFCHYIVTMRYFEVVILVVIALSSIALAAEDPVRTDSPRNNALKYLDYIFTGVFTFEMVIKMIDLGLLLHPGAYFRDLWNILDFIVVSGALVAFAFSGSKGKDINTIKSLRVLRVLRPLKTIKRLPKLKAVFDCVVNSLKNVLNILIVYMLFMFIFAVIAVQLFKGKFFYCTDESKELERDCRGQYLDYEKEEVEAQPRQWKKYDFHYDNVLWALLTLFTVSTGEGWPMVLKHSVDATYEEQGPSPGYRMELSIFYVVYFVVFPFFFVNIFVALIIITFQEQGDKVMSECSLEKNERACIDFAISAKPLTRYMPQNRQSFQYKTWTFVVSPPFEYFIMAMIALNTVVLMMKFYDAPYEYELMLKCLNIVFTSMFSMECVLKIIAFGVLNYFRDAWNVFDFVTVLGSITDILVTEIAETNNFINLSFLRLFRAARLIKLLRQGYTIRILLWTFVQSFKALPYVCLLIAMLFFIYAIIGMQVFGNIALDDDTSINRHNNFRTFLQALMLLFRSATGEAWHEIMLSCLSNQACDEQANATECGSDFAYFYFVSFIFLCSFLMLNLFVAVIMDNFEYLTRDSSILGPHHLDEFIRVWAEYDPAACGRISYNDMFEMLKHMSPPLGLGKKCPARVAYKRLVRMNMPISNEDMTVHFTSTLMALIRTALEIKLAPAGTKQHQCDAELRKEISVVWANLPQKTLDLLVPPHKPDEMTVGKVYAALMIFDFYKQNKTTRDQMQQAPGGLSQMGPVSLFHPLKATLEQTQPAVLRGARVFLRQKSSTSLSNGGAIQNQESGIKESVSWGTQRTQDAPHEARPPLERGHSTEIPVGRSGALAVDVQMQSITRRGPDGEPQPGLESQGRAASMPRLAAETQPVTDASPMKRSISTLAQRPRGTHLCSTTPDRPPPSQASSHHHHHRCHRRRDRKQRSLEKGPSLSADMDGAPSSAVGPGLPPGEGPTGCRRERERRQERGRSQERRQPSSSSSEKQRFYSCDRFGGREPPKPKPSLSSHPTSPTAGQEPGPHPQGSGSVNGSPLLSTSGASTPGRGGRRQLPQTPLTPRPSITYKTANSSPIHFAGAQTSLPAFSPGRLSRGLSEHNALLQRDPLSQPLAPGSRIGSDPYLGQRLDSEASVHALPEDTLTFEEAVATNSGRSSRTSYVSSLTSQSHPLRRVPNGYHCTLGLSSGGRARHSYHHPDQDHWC
Sequence (P54284 whole entry partner): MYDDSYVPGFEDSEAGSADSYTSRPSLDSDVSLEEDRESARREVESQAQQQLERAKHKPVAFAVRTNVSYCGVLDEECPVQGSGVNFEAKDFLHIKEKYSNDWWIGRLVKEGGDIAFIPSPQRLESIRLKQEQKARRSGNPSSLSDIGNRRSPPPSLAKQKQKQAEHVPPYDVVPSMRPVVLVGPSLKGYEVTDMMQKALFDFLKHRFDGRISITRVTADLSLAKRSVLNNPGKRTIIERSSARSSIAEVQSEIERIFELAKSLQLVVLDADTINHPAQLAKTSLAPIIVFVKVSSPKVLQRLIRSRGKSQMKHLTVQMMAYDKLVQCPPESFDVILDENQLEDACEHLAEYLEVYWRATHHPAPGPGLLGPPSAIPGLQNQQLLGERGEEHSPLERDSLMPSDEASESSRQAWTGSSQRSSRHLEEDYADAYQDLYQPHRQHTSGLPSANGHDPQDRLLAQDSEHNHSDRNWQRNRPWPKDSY
Sequence (P54289 25-946 partner limits assumed): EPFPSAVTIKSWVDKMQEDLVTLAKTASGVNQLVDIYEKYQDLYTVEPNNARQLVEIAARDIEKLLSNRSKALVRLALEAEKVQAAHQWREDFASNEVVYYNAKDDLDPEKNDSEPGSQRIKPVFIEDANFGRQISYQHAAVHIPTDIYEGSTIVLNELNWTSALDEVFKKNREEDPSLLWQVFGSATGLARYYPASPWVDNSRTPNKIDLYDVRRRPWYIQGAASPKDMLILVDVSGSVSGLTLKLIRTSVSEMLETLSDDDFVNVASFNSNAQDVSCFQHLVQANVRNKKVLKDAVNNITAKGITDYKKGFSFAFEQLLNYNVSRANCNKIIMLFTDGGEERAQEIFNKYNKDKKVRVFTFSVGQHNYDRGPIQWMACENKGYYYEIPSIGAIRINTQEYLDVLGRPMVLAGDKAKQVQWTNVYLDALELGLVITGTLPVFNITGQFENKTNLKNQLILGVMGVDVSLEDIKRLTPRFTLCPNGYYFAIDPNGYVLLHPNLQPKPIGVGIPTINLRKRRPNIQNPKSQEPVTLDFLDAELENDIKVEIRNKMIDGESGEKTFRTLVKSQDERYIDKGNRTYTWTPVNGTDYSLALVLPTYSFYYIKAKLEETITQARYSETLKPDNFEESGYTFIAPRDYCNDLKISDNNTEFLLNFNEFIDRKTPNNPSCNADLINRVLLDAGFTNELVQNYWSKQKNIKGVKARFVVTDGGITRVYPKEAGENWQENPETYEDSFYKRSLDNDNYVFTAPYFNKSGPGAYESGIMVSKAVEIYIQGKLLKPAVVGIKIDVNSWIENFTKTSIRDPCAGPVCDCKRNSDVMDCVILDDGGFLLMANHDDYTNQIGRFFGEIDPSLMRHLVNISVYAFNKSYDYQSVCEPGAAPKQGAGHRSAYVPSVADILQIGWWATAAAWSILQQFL
Sequence (P54289 947-1103 partner limits assumed): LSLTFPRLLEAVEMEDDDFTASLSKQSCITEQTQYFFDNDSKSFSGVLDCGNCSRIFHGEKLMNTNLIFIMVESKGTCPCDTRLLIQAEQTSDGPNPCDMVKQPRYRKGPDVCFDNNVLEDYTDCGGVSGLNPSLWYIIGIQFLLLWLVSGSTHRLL
Assay Endpoint: log10 of IC50 (log10 of the value in nM)

INSERT INTO measurements (compound, tested_on, assay_endpoint, experimental_result) VALUES
  ('CCOc1ccccc1-n1nc2c(c1-c1ccc(Cl)cc1)CC(OC(=O)N(C)C)C2 (centres unmarked)', 'N-type calcium channel (α1B (Cav2.2), β3 and α2δ subunits) (Homo sapiens)', 'log10 of IC50', 1.45),
  ('COc1ccccc1-n1nc2c(c1-c1ccc(Cl)cc1)CC(CCNS(C)(=O)=O)C2 (centres unmarked)', 'N-type calcium channel (α1B (Cav2.2), β3 and α2δ subunits) (Homo sapiens)', 'log10 of IC50', 1.86),
  ('COc1ccccc1-n1nc2c(c1-c1ccc(C#N)cc1)C[C@H](n1cnc(C)c1C)C2', 'N-type calcium channel (α1B (Cav2.2), β3 and α2δ subunits) (Homo sapiens)', 'log10 of IC50', 2.02),
  ('CCC1(CC)CCN(C2Cc3nn(-c4ccccc4OC)c(-c4ccc(Cl)cc4)c3C2)C1 (centres unmarked)', 'N-type calcium channel (α1B (Cav2.2), β3 and α2δ subunits) (Homo sapiens)', 'log10 of IC50', 1.66),
  ('COc1ccccc1-n1nc2c(c1-c1ccc(Cl)cc1)CC(C#N)C2 (centres unmarked)', 'N-type calcium channel (α1B (Cav2.2), β3 and α2δ subunits) (Homo sapiens)', 'log10 of IC50', 2.48),
  ('COc1cc(Cl)ccc1-n1nc2c(c1-c1ccc(Cl)cc1)CC1(C2)OCCCO1', 'N-type calcium channel (α1B (Cav2.2), β3 and α2δ subunits) (Homo sapiens)', 'log10 of IC50', 2.11),
  ('CCOc1ccc(-c2c3c(nn2-c2ccccc2OC)CC2(C3)OCC(C)(C)CO2)cn1', 'N-type calcium channel (α1B (Cav2.2), β3 and α2δ subunits) (Homo sapiens)', 'log10 of IC50', 1.78),
  ('COc1ccccc1-n1nc2c(c1-c1ccc(Cl)cc1)C[C@H](O[C@H]1C[C@@H]3CC[C@H]1C3)C2', 'N-type calcium channel (α1B (Cav2.2), β3 and α2δ subunits) (Homo sapiens)', 'log10 of IC50', 1.69);

Values compiled from patent US8853418B2.
